# experimental_system: Aromatase (Homo sapiens, UniProt P11511)
# Sequence (P11511 whole entry): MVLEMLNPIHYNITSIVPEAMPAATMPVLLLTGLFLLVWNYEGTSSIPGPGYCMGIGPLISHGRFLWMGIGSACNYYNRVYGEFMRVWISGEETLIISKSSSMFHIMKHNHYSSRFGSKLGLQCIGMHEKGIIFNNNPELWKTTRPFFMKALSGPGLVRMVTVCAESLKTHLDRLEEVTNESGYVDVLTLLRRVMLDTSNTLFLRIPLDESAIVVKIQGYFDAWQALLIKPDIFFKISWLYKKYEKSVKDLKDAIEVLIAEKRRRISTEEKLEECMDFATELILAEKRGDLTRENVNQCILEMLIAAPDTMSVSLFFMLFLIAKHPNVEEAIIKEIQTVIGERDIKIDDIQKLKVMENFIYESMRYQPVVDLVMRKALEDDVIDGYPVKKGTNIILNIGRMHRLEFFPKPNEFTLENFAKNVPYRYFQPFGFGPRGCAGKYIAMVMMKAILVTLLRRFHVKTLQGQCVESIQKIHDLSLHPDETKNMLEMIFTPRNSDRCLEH
# procedure_text: Inhibition of cytochrome P450 19A1
pIC50: −log10 of the molar value.
Each entry gets NO if its pIC50 stays under 6, and YES if its pIC50 is 6 or above.

| molecule | classification |
| --- | --- |
| C[C@]12CCC(=O)C(S)=C1CCC1C2=CC[C@]2(C)C(=O)CCC12 (stereo not given in full) | NO |

Now consider a different molecule.
Threshold query (pIC50 >= 6) on C[C@]12CCC(=O)C(O)=C1CC[C@@H]1[C@@H]2CC[C@]2(C)C(=O)CC[C@@H]12 [FORMESTANE]
YES

###

# procedure_text: kinact was determined.
# Type: ADME
readout: K inact

| compound | reported_result |
| --- | --- |
| C[C@]12CCC(=O)C(O)=C1CC[C@@H]1[C@@H]2CC[C@]2(C)C(=O)CC[C@@H]12 [FORMESTANE] | 2.3 10e-3 s-1 |
| COCSC1=C2CCC3C(CC[C@]4(C)C(=O)CCC34)[C@@]2(C)CCC1=O (stereo partly drawn) | Not time-dependent |
| C[C@]12CCC(=O)C(S)=C1CCC1C2=CC[C@]2(C)C(=O)CCC12 (stereo partly drawn) | 3.9 10e-3 s-1 |
| C[C@]12CCC(=O)C(SCC#N)=C1CC[C@@H]1[C@@H]2CC[C@]2(C)C(=O)CC[C@@H]12 | 1.2 10e-3 s-1 |
| C[C@]12CCC(=O)C(SCCl)=C1CCC1C2=CC[C@]2(C)C(=O)CCC12 (stereo partly drawn) | 4.8 10e-3 s-1 |
| C[C@]12CCC(=O)C(SCF)=C1CCC1C2CC[C@]2(C)C(=O)CCC12 (stereo partly drawn) | 3.1 10e-3 s-1 |
| C[C@]12CCC(=O)C(SCCl)=C1CCC1C2CC[C@]2(C)C(=O)CCC12 (stereo partly drawn) | 3.8 10e-3 s-1 |

# context switch: different compound, same K inact
Give reported K inact value for COCOC1=C2CCC3C(CC[C@]4(C)C(=O)CCC34)[C@@]2(C)CCC1=O (stereo partly drawn)
Not time-dependent

###

# experimental_system: UniProtKB P11511
# procedure_text: Inhibition of Cytochrome P450 19A1
Kindly supply the reported pIC50 values for the records listed here.
Answers are plain numbers, as −log10 of the molar value.

Please review the following examples before continuing.
| compound | pIC50 |
| --- | --- |
| C[C@]12CCC(=O)C(S)=C1CCC1C2CC[C@]2(C)C(=O)CCC12 (stereo partly drawn) | 5.46 |
| C[C@]12CCC(=O)C(SCC#N)=C1CC[C@@H]1[C@@H]2CC[C@]2(C)C(=O)CC[C@@H]12 | 5.43 |

# context switch: different compound, same pIC50
Give reported pIC50 value for C[C@]12CCC(=O)C(SCF)=C1CCC1C2CC[C@]2(C)C(=O)CCC12 (stereo partly drawn)
6.10

###

Kindly supply the reported Ki values for the records listed here.
# experimental_system: Aromatase (Homo sapiens)
# procedure_text: Inhibition constant for human placental cytochrome P450 19A1
One number for each entry, in nM.

Please review the following examples before continuing.
| compound | experimental_system | readout_units | Ki |
| --- | --- | --- | --- |
| C[C@]12CCC(=O)C(SCCl)=C1CCC1C2=CC[C@]2(C)C(=O)CCC12 (some centres undefined) | Aromatase (Homo sapiens) | nM | 27 |
| C[C@]12CCC(=O)C(S)=C1CCC1C2=CC[C@]2(C)C(=O)CCC12 (some centres undefined) | Aromatase (Homo sapiens) | nM | 72 |
| C[C@]12CCC(=O)C(SCCl)=C1CCC1C2CC[C@]2(C)C(=O)CCC12 (some centres undefined) | Aromatase (Homo sapiens) | nM | 30 |

Give reported Ki value for C[C@]12CCC(=O)C(O)=C1CC[C@@H]1[C@@H]2CC[C@]2(C)C(=O)CC[C@@H]12 [FORMESTANE]
27
